Listing of entries alongside the reported pIC50.
System: BRCA2 Knockout DLD-1 cells
Assay Explanation: Inhibition of proliferation of BRCA2 Knockout DLD-1 cells (CellTiter-Glo)
Format: cell-based
Recorded Conditions: Homo sapiens, about 144 hours incubation
pIC50: −log10 of the molar value.

{"columns": ["Query Smiles", "System Tested", "pIC50"],
 "data": [
  ["CCc1cc2ncc(CN3CC=C(c4ccc(C(=O)NCC(F)(F)F)nc4)CC3)cc2[nH]c1=O", "BRCA2 Knockout DLD-1 cells", 8.85],
  ["CCc1cc2ncc(CN3CC=C(c4ccc(C(=O)NC)nc4C#N)CC3)cc2[nH]c1=O", "BRCA2 Knockout DLD-1 cells", 8.64],
  ["CCc1cc2ncc(CN3CC=C(c4ccc(C(=O)NC)nc4Cl)CC3)cc2[nH]c1=O", "BRCA2 Knockout DLD-1 cells", 9.00],
  ["CCc1cc2ncc(CN3CC=C(c4ccc(C(=O)NC5(C#N)CC5)nc4)CC3)cc2[nH]c1=O", "BRCA2 Knockout DLD-1 cells", 8.57],
  ["CCc1cc2ncc(CN3CC=C(c4ccc(C(=O)NCC#N)nc4)CC3)cc2[nH]c1=O", "BRCA2 Knockout DLD-1 cells", 8.62],
  ["CCc1cc2ncc(CN3CCN(c4cnc5c(NC)nc(C)cc5c4)CC3)cc2[nH]c1=O", "BRCA2 Knockout DLD-1 cells", 8.32],
  ["CCc1cc2ncc(CN3CC=C(c4ccc(C(=O)NC)nc4F)CC3)cc2[nH]c1=O", "BRCA2 Knockout DLD-1 cells", 8.80],
  ["CNC(=O)c1ccc(C2=CCN(Cc3cnc4cc(C5CC5)c(=O)[nH]c4c3)CC2)cn1", "BRCA2 Knockout DLD-1 cells", 8.46]
]}

###

Assay Explanation: Pharmacokinetic assay in Balb/C mice
Recorded Conditions: male, mouse, plasma, po, 1 mg/kg
Property Name: AUC(0-t)

{"columns": ["Compound", "Property Name", "Reported Value"],
 "data": [
  ["CCc1cc2ncc(CN3CC=C(c4ccc(C(=O)NC)nc4F)CC3)cc2[nH]c1=O [Example 36]", "AUC(0-t)", "61900 ng·h/mL"],
  ["CCc1cc2ncc(CN3CC=C(c4ccc(C(=O)NC5CC5)nc4)CC3)cc2[nH]c1=O [Example 29]", "AUC(0-t)", "60600 ng·h/mL"],
  ["CCc1cc2ncc(CN3CCN(c4cnc5c(NC)nccc5c4)CC3)cc2[nH]c1=O [Example 3]", "AUC(0-t)", "12700 ng·h/mL"],
  ["CCc1cc2ncc(CN3CC=C(c4ccc(C(=O)NC)nc4)CC3)cc2[nH]c1=O [Example 1]", "AUC(0-t)", "119000 ng·h/mL"]
]}

###

Listing of entries alongside the reported pIC50.
System Tested: PARP1 enzyme (Homo sapiens (Human))
Sequence (P09874 whole entry): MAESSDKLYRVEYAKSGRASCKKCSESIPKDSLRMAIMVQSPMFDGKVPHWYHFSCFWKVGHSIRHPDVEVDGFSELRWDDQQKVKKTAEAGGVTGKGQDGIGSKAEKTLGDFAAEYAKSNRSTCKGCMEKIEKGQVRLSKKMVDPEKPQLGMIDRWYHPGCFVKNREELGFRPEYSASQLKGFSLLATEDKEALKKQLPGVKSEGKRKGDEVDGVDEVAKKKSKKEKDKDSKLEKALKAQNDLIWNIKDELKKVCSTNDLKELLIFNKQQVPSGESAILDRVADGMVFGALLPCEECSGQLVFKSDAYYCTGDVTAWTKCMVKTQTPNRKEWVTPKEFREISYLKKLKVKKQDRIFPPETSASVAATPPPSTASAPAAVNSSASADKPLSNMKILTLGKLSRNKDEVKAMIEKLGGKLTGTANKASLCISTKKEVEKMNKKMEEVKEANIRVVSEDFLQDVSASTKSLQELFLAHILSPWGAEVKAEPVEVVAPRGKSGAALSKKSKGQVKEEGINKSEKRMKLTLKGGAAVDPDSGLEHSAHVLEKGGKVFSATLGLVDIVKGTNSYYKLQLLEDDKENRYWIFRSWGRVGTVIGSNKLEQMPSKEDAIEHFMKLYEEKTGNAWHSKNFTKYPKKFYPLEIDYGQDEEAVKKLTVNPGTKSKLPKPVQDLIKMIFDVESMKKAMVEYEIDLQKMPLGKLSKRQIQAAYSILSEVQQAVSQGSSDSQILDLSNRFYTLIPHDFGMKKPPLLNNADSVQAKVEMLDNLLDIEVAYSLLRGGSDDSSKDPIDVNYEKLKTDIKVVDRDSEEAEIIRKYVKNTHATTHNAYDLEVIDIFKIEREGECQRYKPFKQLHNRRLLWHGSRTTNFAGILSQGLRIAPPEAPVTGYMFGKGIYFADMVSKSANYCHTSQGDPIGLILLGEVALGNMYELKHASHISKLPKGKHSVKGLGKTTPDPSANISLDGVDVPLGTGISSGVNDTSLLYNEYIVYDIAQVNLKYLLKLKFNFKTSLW
Assay Explanation: Inhibitory activity on PARP1 enzyme (chemiluminescence)
Assay type: biochemical
pIC50: −log10 of the molar value.
Property Name: pIC50

{"columns": ["Molecule", "System Tested", "Property Name", "Reported Value"],
 "data": [
  ["CCc1cc2ncc(CN3CC=C(c4ncc(C)n4C)CC3)cc2[nH]c1=O", "PARP1 enzyme (Homo sapiens (Human))", "pIC50", 9.02],
  ["CCc1cc2ncc(CN3CC=C(c4ccc(C(=O)NC)nc4Cl)CC3)cc2[nH]c1=O", "PARP1 enzyme (Homo sapiens (Human))", "pIC50", 8.89],
  ["CCc1cc2ncc(CN3CC=C(c4ccc(C(=O)NC)c(F)c4C)CC3)cc2[nH]c1=O", "PARP1 enzyme (Homo sapiens (Human))", "pIC50", 8.77],
  ["CCc1cc2ncc(CN3CC=C(c4cnc(C(=O)NC)s4)CC3)cc2[nH]c1=O", "PARP1 enzyme (Homo sapiens (Human))", "pIC50", 9.22],
  ["CCC1Oc2ncc(CN3CC=C(c4ccc(C(=O)NC)nc4C)CC3)cc2NC1=O (centres unmarked)", "PARP1 enzyme (Homo sapiens (Human))", "pIC50", 8.29],
  ["CCc1cc2ncc(CN3CC=C(c4ccc(C(=O)NOC)nc4)CC3)cc2[nH]c1=O", "PARP1 enzyme (Homo sapiens (Human))", "pIC50", 8.85],
  ["CCC1Oc2ccc(CN3CC=C(c4ccc(C(=O)NC)nc4Cl)CC3)cc2NC1=O (centres unmarked)", "PARP1 enzyme (Homo sapiens (Human))", "pIC50", 8.31],
  ["CCc1cc2ncc(CN3CC=C(c4ccc(C(=O)NC5CC5)nc4)CC3)cc2[nH]c1=O", "PARP1 enzyme (Homo sapiens (Human))", "pIC50", 9.01],
  ["CCc1cc2ncc(CN3CCC(c4ccc(C(=O)NC)nc4)=C(F)C3)cc2[nH]c1=O", "PARP1 enzyme (Homo sapiens (Human))", "pIC50", 9.05],
  ["CCC1Oc2ncc(CN3CC=C(c4ccc(C(=O)NC)nc4F)CC3)cc2NC1=O (centres unmarked)", "PARP1 enzyme (Homo sapiens (Human))", "pIC50", 8.57],
  ["CCc1cc2ncc(CN3CC=C(c4ccc(C(=O)NC)nc4OC)CC3)cc2[nH]c1=O", "PARP1 enzyme (Homo sapiens (Human))", "pIC50", 8.80],
  ["CCc1cc2ncc(CN3CC=C(c4ccc(C(=O)NC)nc4F)CC3)cc2[nH]c1=O", "PARP1 enzyme (Homo sapiens (Human))", "pIC50", 9.10],
  ["CCn1c(=O)[nH]c2cc(CN3CC=C(c4ccc(C(=O)NC)nc4F)CC3)ccc2c1=O", "PARP1 enzyme (Homo sapiens (Human))", "pIC50", 8.52],
  ["CCc1cc2ncc(CN3CCN(c4ccc5c(c4)CN(C)C5=O)CC3)cc2[nH]c1=O", "PARP1 enzyme (Homo sapiens (Human))", "pIC50", 8.54],
  ["CCC1Oc2ncc(CN3CC=C(c4ccc(C(=O)NC)nc4Cl)CC3)cc2NC1=O (centres unmarked)", "PARP1 enzyme (Homo sapiens (Human))", "pIC50", 8.46],
  ["CCc1cc2ncc(CN3CCN(c4cnc5[nH]ccc5c4)CC3)cc2[nH]c1=O", "PARP1 enzyme (Homo sapiens (Human))", "pIC50", 8.48],
  ["CCc1cc2ncc(CN3CCN(c4ccc5c(c4)C(=O)N(C)C5=O)CC3)cc2[nH]c1=O", "PARP1 enzyme (Homo sapiens (Human))", "pIC50", 8.48]
]}
